Reference source: the supplement of paper PMC9112550

tested on: Escherichia coli TOP10; assay: shrunken log2 fold change of peptide-encoding DNA abundance (4.5 h post-induction vs induction); higher = less antimicrobial activity (less host growth inhibition); conditions: time post-induction: 4.5 h; library: site-saturation at positions 5, 18, 19, 20
Decide by shrunken log2 fold change: equal to or exceeding -0.1 means t, less means f.

Some solved cases for reference:
>>> label("RRIRSRPPRLPRPRPRPSGRPRP")
"t"
>>> label("RRIRLRPPRLPRPRPRPYTVPRP")
"f"
>>> label("RRIRNRPPRLPRPRPRPRQWPRP")
"t"
>>> label("RRIRHRPPRLPRPRPRPRLWPRP")
"t"
>>> label("RRIRERPPRLPRPRPRPHKEPRP")
"f"

Check this sequence for shrunken log2 fold change at or above -0.1: `RRIRHRPPRLPRPRPRPRCTPRP` t

And then `RRIRSRPPRLPRPRPRPQKGPRP` , what is it? t

And then `RRIRMRPPRLPRPRPRPYTCPRP` , what is it? t

----------
system: Escherichia coli TOP10; test: shrunken log2 fold change of peptide-encoding DNA abundance (4.5 h post-induction vs induction); higher = less antimicrobial activity (less host growth inhibition); conditions: time post-induction: 4.5 h; library: site-saturation at positions 5, 18, 19, 20
Readout kind: shrunken log2 fold change
Keep it simple and answer with nothing but the number.

Examples with answers:
>>> assay_result("RRIRIRPPRLPRPRPRPWRAPRP")
0.0578
>>> assay_result("RRIRGRPPRLPRPRPRPHLAPRP")
0.601
>>> assay_result("RRIRRRPPRLPRPRPRPLYLPRP")
0.926
>>> assay_result("RRIRIRPPRLPRPRPRPYMPPRP")
-1.27
>>> assay_result("RRIRVRPPRLPRPRPRPHMIPRP")
-0.463

Test system Escherichia coli TOP10; read-out shrunken log2 fold change; what value for `RRIRPRPPRLPRPRPRPKYDPRP` ? -0.612

And then `RRIRYRPPRLPRPRPRPFNAPRP` , what is it? -2.15

And then `RRIRVRPPRLPRPRPRPITSPRP` , what is it? -0.21

And then `RRIRSRPPRLPRPRPRPLLAPRP` , what is it? 0.602

And then `RRIRIRPPRLPRPRPRPRETPRP` , what is it? 0.0956

And then `RRIRTRPPRLPRPRPRPGVMPRP` , what is it? 0.0539

----------
The following sequences are shown together with reported shrunken log2 fold change values.
system: Escherichia coli TOP10; test: shrunken log2 fold change of peptide-encoding DNA abundance (4.5 h post-induction vs induction); higher = less antimicrobial activity (less host growth inhibition); settings: time post-induction: 4.5 h; library: site-saturation at positions 5, 18, 19, 20
Keep it simple and answer with nothing but the number.

Test system Escherichia coli TOP10; read-out shrunken log2 fold change; what value for `RRIRMRPPRLPRPRPRPFYRPRP` ? -0.0105

----------
The following sequences are shown together with reported shrunken log2 fold change values.
test system: Escherichia coli TOP10; test: shrunken log2 fold change of peptide-encoding DNA abundance (4.5 h post-induction vs induction); higher = less antimicrobial activity (less host growth inhibition); settings: time post-induction: 4.5 h; library: site-saturation at positions 5, 18, 19, 20
Keep it simple and answer with nothing but the number.

>>> assay_result("RRIRKRPPRLPRPRPRPTLVPRP")
0.528
>>> assay_result("RRIRFRPPRLPRPRPRPVSCPRP")
-0.514
>>> assay_result("RRIRGRPPRLPRPRPRPEYWPRP")
1.03
>>> assay_result("RRIRIRPPRLPRPRPRPQNCPRP")
-0.0145
>>> assay_result("RRIRHRPPRLPRPRPRPHYMPRP")
-0.854
>>> assay_result("RRIRGRPPRLPRPRPRPVKHPRP")
0.168
>>> assay_result("RRIRQRPPRLPRPRPRPHKLPRP")
-0.544
>>> assay_result("RRIRFRPPRLPRPRPRPCFEPRP")
-0.0728
>>> assay_result("RRIRVRPPRLPRPRPRPCPMPRP")
-0.0643
>>> assay_result("RRIRCRPPRLPRPRPRPKNVPRP")
-0.258

Now turn to the next sequence.
Tell me the measured shrunken log2 fold change of `RRIRMRPPRLPRPRPRPPDEPRP` , please. 2.96

----------
tested on: Escherichia coli TOP10; assay: shrunken log2 fold change of peptide-encoding DNA abundance (4.5 h post-induction vs induction); higher = less antimicrobial activity (less host growth inhibition); conditions: time post-induction: 4.5 h; library: site-saturation at positions 5, 18, 19, 20
Entry class follows shrunken log2 fold change: low bin: < -0.08; mid bin: ≥ -0.08 and < 0.1; high bin: ≥ 0.1

>>> label("RRIRMRPPRLPRPRPRPSTGPRP")
"high bin"
>>> label("RRIRLRPPRLPRPRPRPPKTPRP")
"high bin"
>>> label("RRIRHRPPRLPRPRPRPANKPRP")
"low bin"
>>> label("RRIRQRPPRLPRPRPRPRQYPRP")
"low bin"
>>> label("RRIRYRPPRLPRPRPRPKCYPRP")
"low bin"

Hi there! Could you help me figure out the category for `RRIRYRPPRLPRPRPRPAEPPRP` please? mid bin

And then `RRIRQRPPRLPRPRPRPEHVPRP` , what is it? mid bin

And then `RRIRIRPPRLPRPRPRPEDVPRP` , what is it? low bin

----------
test system: Escherichia coli TOP10; assay: shrunken log2 fold change of peptide-encoding DNA abundance (4.5 h post-induction vs induction); higher = less antimicrobial activity (less host growth inhibition); conditions: time post-induction: 4.5 h; library: site-saturation at positions 5, 18, 19, 20
The following sequences are shown together with reported shrunken log2 fold change values.
Keep it simple and answer with nothing but the number.

Examples with answers:
>>> assay_result("RRIRARPPRLPRPRPRPSCGPRP")
0.287
>>> assay_result("RRIRWRPPRLPRPRPRPMVPPRP")
-0.0589
>>> assay_result("RRIRGRPPRLPRPRPRPYLSPRP")
-0.0512
>>> assay_result("RRIRLRPPRLPRPRPRPGKHPRP")
-0.0923
>>> assay_result("RRIRKRPPRLPRPRPRPWYSPRP")
-0.234
>>> assay_result("RRIRPRPPRLPRPRPRPDADPRP")
0.0741
>>> assay_result("RRIRTRPPRLPRPRPRPKNPPRP")
-0.0748
>>> assay_result("RRIRERPPRLPRPRPRPYSHPRP")
0.0583

Test system Escherichia coli TOP10; read-out shrunken log2 fold change; what value for `RRIRYRPPRLPRPRPRPDFVPRP` ? -0.205

And then `RRIRTRPPRLPRPRPRPRDAPRP` , what is it? 0.881

And then `RRIRQRPPRLPRPRPRPYFWPRP` , what is it? -0.101

And then `RRIRNRPPRLPRPRPRPNFHPRP` , what is it? -0.048

And then `RRIRKRPPRLPRPRPRPDTRPRP` , what is it? 0.0202

----------
tested on: Escherichia coli TOP10; assay: shrunken log2 fold change of peptide-encoding DNA abundance (4.5 h post-induction vs induction); higher = less antimicrobial activity (less host growth inhibition); details: time post-induction: 4.5 h; library: site-saturation at positions 5, 18, 19, 20
The following sequences are shown together with reported shrunken log2 fold change values.
Keep it simple and answer with nothing but the number.

Examples with answers:
>>> assay_result("RRIRQRPPRLPRPRPRPQFNPRP")
-0.6
>>> assay_result("RRIRERPPRLPRPRPRPSYTPRP")
-0.181
>>> assay_result("RRIRSRPPRLPRPRPRPMMGPRP")
0.0137

Test system Escherichia coli TOP10; read-out shrunken log2 fold change; what value for `RRIRCRPPRLPRPRPRPVQNPRP` ? -0.22

And then `RRIRTRPPRLPRPRPRPYKWPRP` , what is it? -0.0875

And then `RRIRPRPPRLPRPRPRPWWHPRP` , what is it? 0.0413

And then `RRIRCRPPRLPRPRPRPGAYPRP` , what is it? -0.319

And then `RRIRRRPPRLPRPRPRPLNRPRP` , what is it? -0.169

----------
test system: Escherichia coli TOP10; test: shrunken log2 fold change of peptide-encoding DNA abundance (4.5 h post-induction vs induction); higher = less antimicrobial activity (less host growth inhibition); conditions: time post-induction: 4.5 h; library: site-saturation at positions 5, 18, 19, 20;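 also: peptides expressed intracellularly from a pBAD plasmid library in pooled LB shake-flask culture, induced with 0.3% L-arabinose, DNA abundance read by NGS, three biological replicates, DESeq2 with apeglm shrinkage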
The following sequences are shown together with reported shrunken log2 fold change values.
Keep it simple and answer with nothing but the number.

Examples with answers:
>>> assay_result("RRIRHRPPRLPRPRPRPTENPRP")
-0.418
>>> assay_result("RRIRTRPPRLPRPRPRPVQKPRP")
0.296
>>> assay_result("RRIRPRPPRLPRPRPRPERLPRP")
0.0284

Tell me the measured shrunken log2 fold change of `RRIRFRPPRLPRPRPRPEAWPRP` , please. 0.00383

And then `RRIRNRPPRLPRPRPRPQGMPRP` , what is it? -0.0261

And then `RRIRSRPPRLPRPRPRPKPKPRP` , what is it? 0.545

And then `RRIRQRPPRLPRPRPRPWCMPRP` , what is it? -0.342

And then `RRIRRRPPRLPRPRPRPCECPRP` , what is it? 0.076
